Data origin: the supplement of paper PMC6555819

tested on: LXRb homodimer (NR concentration 270 nM); assay: PBM binding z-score (relative to random genomic background probes); higher = stronger binding; sequences stand for … in GC…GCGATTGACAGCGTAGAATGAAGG
Class TRUE: PBM binding z-score at least 1. Class FALSE: PBM binding z-score below 1.

• CAAACTAGGTCACGAAAGGTCAAAGTGGAATGAC = TRUE
• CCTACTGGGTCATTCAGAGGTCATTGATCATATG = TRUE
• CGAACTAGGTCAAAGGACAATGAAAGGCGACGTA = FALSE
• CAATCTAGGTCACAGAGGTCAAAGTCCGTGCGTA = TRUE
• ACTAGCAGGCCAAAGGTCACTCAAGATTAGTCCG = FALSE
• GCTGCAAGGTCAACTGATGGTCAGCTAAAGCTCG = TRUE
• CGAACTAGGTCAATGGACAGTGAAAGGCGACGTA = FALSE
• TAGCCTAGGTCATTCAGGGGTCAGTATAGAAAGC = TRUE
• CGAACTAGGTCAAAGGACAGTGACAGGCGACGTA = FALSE
• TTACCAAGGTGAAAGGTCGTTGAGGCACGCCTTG = FALSE
